biological target: Hexokinase-4 (Homo sapiens) + Glucokinase regulatory protein (Homo sapiens) (UniProt P35557+Q14397); assay: qHTS assay for inhibitors of recombinant human GCK-GKRP interaction: ADP-Glo assay (AID 743206); details: ADP-Glo luminescence, 60 min, 0% = vehicle-only wells with enzyme present; series mostly up to 76.9 µM
Sequence (P35557 whole entry, looked up): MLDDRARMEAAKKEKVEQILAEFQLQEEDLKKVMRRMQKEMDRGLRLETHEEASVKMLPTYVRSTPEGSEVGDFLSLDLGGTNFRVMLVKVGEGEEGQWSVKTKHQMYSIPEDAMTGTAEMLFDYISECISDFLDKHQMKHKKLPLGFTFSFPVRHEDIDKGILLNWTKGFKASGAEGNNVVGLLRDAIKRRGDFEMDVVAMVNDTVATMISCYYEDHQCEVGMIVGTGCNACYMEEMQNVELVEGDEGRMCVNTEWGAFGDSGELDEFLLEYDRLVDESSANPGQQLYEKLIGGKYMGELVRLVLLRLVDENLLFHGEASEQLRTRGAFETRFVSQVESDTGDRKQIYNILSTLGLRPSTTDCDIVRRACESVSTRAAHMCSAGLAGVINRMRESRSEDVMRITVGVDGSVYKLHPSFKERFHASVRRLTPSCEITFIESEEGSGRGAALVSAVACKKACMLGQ
Sequence (Q14397 whole entry, looked up): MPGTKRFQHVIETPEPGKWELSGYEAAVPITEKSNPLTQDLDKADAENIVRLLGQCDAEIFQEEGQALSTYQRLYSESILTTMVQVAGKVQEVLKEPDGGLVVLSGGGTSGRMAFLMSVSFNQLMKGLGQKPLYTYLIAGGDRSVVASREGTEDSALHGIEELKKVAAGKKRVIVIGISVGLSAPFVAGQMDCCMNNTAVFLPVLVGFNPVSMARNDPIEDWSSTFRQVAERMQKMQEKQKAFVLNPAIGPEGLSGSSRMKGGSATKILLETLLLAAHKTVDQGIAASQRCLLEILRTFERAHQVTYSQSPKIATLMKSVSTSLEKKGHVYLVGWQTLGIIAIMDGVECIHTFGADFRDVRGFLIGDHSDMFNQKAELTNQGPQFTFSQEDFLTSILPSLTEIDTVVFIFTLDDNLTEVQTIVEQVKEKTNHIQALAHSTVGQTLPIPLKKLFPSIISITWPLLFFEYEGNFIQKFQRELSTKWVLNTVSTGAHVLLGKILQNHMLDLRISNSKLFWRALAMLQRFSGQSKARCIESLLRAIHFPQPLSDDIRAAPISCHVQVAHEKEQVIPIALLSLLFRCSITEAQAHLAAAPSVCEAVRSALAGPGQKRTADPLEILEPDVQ
Calls of active or inactive are those of the source. Calls follow the shape of the dose curve; as a rule, active = well fitted curve in the direction sought with a large enough effect; inconclusive = small, poorly fitted or top-dose-only effect, or another doubt; inactive = no such curve, though single readings can be large or run the other way.
Quantity: outcome

# lookup: outcome of CC(C)COCC(CN(Cc1ccccc1)c1ccccc1)N1CCCC1 (centres undefined)
inactive

Item CCC(=O)c1ccc2c(c1)N(CCCN(C)C)c1ccccc1S2 has what recorded outcome?
inactive

GET /values?readout=outcome&item= CC(C)(C)NCC(O)c1cc(O)cc(O)c1 (centres undefined)
inactive

Fill in the blank: the reported outcome of Cc1cccc(C)c1NC(=O)C(C)N (centres undefined) is ____.
inactive

***
# get_value(readout='outcome', item= Cc1nc2c([nH]1)c(=O)n(C)c(=O)n2Cc1ccco1 )
inactive

Please give the measured outcome for this compound: CNCCC(Oc1ccccc1OC)c1ccccc1 (centres undefined)
inactive

Which outcome is reported for this compound? Cc1nnc(SCC2=C(C(=O)O)N3C(=O)[C@@H](NC(=O)Cn4cnnn4)[C@H]3SC2)s1
inactive

// query outcome value for entry CC(=O)OC(C)C[N+](C)(C)C (centres undefined)
inactive

Can you share its outcome? I mean this compound: Cc1cc(C)c(/C=C2\C(=O)Nc3ccccc32)[nH]1
inactive

Report outcome for CN(C)CCCN1c2ccccc2Sc2ccc(C(F)(F)F)cc21 please.
inactive

Could you share which outcome value was measured for C[C@]12C=CC(=O)C=C1CC[C@H]1[C@@H]3C[C@@H](O)[C@](O)(C(=O)CO)[C@@]3(C)C[C@H](O)[C@@]12F ?
inactive

Give its outcome value. Item: CN1C(=O)CC[C@H]1c1cccnc1
inactive

# lookup: outcome of O=C(O)CCCCCCCC(=O)O
inactive

For the compound shown here, CCCN(CCC)C(=O)C(CCC(=O)O)NC(=O)c1ccccc1 (centres undefined) , give the reported outcome.
inactive

Requested field: outcome. Item: CCCNC(C)C(=O)Nc1ccccc1C (centres undefined)
inactive

Name the reported outcome value associated with the compound CC(N=C(NC#N)Nc1ccncc1)C(C)(C)C (centres undefined)
inactive

Fill in: outcome of CCN(CC)CCNC(=O)c1ccc(NC(C)=O)cc1 is ___
inactive

Endpoint output: outcome of CC(=O)[C@@]1(O)CC[C@H]2[C@@H]3CCC4=CC(=O)CC[C@]4(C)[C@H]3CC[C@@]21C . Value?
inactive

# get_value(readout='outcome', item= CCCC(C(=O)OCCN(CC)CC)(c1ccccc1)c1ccccc1 )
inactive
